All values here come from patent US10081624B2.

# Assayed System: HDAC6 enzyme (Homo sapiens, UniProt Q9UBN7)
# Construct: prepared by transducing full length HDAC1 and HDAC6 genes into Sf-9 insect cells; GST; purchased SignalChem; host or cells: Sf-9 insect cells
# Sequence (Q9UBN7 1-1215): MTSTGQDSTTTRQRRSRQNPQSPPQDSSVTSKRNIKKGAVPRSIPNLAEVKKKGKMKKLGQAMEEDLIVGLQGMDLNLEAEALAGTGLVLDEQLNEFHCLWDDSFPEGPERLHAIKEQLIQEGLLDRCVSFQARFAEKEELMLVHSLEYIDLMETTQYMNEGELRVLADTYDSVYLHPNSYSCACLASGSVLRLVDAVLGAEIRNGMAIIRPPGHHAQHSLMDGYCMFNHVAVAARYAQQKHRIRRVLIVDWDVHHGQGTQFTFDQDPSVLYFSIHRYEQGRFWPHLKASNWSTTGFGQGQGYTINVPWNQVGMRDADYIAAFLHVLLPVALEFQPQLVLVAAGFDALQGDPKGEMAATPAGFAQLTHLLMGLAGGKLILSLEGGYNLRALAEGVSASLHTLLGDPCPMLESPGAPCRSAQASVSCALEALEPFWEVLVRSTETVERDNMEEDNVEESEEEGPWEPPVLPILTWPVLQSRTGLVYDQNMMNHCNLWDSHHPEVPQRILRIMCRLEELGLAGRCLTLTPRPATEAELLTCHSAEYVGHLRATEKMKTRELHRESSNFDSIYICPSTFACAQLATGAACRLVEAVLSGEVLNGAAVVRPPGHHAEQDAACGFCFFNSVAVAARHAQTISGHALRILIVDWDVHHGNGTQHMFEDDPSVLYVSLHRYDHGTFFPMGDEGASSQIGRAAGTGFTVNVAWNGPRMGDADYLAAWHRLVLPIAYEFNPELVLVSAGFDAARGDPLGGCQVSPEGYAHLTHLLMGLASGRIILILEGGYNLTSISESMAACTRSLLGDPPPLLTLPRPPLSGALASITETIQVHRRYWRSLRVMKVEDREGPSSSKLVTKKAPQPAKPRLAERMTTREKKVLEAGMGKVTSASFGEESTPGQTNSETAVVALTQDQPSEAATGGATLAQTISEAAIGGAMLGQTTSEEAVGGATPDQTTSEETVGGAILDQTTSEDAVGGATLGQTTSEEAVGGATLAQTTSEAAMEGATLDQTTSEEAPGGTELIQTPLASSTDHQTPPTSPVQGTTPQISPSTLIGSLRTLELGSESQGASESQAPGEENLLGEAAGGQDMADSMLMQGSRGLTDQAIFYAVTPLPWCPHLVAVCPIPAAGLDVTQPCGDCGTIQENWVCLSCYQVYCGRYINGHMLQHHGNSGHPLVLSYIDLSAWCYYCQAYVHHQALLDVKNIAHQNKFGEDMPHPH
# Procedure Details: HDAC6 enzyme inhibitory assay (HDAC-Glo I/II Assay kit)
# Type: biochemical
# Experimental Context: 1 μM test compound; read-out: HDAC6 inhibitory rate (%) (1 μM)
Value Type: inhibition at 1 µM

> print(dat)
                                   compound          value.type  result
1  N#Cc1cccc(C(=O)N2CCOCC2CNC(=O)c2ccc(-c3noc(C(F)(F)F)n3)cc2)c1 (stereo not shown) [Example 28]  inhibition at 1 µM     98%
2  COC(=O)c1cccc(C(=O)N2CCOC[C@@H]2CNC(=O)c2ccc(-c3noc(C(F)(F)F)n3)cc2)c1  inhibition at 1 µM     96%
3  Cc1ncsc1C(=O)N1CCOC[C@H]1CNC(=O)c1ccc(-c2noc(C(F)(F)F)n2)cc1  inhibition at 1 µM     89%
4  O=C(NC[C@H]1COCCN1C(=O)COc1ccccc1)c1ccc(-c2noc(C(F)(F)F)n2)cc1  inhibition at 1 µM     93%
5  O=C(NCC1COCCN1C(=O)c1ccc(Cl)cc1)c1ccc(-c2noc(C(F)(F)F)n2)s1 (stereo not shown)  inhibition at 1 µM     93%
6  Cc1nnsc1C(=O)N1CCOC[C@H]1CNC(=O)c1ccc(-c2noc(C(F)(F)F)n2)cc1  inhibition at 1 µM     92%
7  O=C(NC[C@H]1COCCN1C(=O)N1CCC(c2cccnc2)C1)c1ccc(-c2noc(C(F)(F)F)n2)cc1 (stereo partly shown)  inhibition at 1 µM     82%
